// values below are reported melting point
Where a name gives a salt, the structure may show the parent alone.

C[C@@]1(O)[C@H](O)[C@@H](CO[P@@]2(=O)OCC[C@@H](c3ccncc3)O2)O[C@H]1n1ccc2c(=O)[nH]c(N)nc21 :: 138 to 141 °C
C[C@@]1(O)[C@H](O)[C@@H](COP2(=O)OCC[C@@H](c3cc(F)ccc3F)O2)O[C@H]1n1cnc2c(N)ncnc21 (some centres unmarked) :: 75 to 78 °C
CC(=O)O[C@@H]1[C@@H](COP2(=O)OCC[C@H](c3cccc(Cl)c3)O2)O[C@@H](n2ccc3c(N)ncnc32)[C@]1(C)O (some centres unmarked) :: 90 to 93 °C
C[C@@]1(O)[C@H](O)[C@@H](COP2(=O)OCC[C@@H](c3cccc(Cl)c3)O2)O[C@H]1n1ccc2c(=O)[nH]c(N)nc21 (some centres unmarked) :: 175 °C
C[C@@]1(O)[C@H](O)[C@@H](COP2(=O)OCC[C@H](c3cc(F)cc(F)c3)O2)O[C@H]1n1ccc2c(=O)[nH]c(N)nc21 (some centres unmarked) (as salt: trifluoroacetic acid salt) :: 182 to 185 °C
C[C@@]1(O)[C@H](O)[C@@H](COP2(=O)OCC[C@@H](c3cccc(C#N)c3)O2)O[C@H]1n1cnc2c(N)ncnc21 (some centres unmarked) :: 153 to 156 °C

Note to self: melting point recorded for "C[C@@]1(O)[C@H](O)[C@@H](CO)O[C@H]1n1ccc2c(N=[N+]=[N-])ncnc21" was 179 to 180 °C

Sample C[C@@]1(O)[C@H](O)[C@@H](CO[P@]2(=O)OCC[C@H](c3cccc(Cl)c3)O2)O[C@H]1n1ccc2c(=O)[nH]c(N)nc21 (as salt: trifluoroacetic acid salt) ; melting point observed: 170 to 180 °C

Query C[C@@]1(O)[C@H](O)[C@@H](COP2(=O)OCC[C@@H](c3cc(F)ccc3F)O2)O[C@H]1n1ccc2c(=O)[nH]c(N)nc21 (some centres unmarked) yields melting point of 170 to 173 °C

The compound listed as C[C@@]1(O)[C@H](O)[C@@H](COP2(=O)OC[C@@H](c3ccccc3)[C@@H](c3ccccc3)O2)O[C@H]1n1ccc2c(N)ncnc21 (some centres unmarked) [Compound 16.22] has a reported melting point of 160 to 163 °C

Data point: COc1ccc(F)c([C@H]2CCOP(=O)(OC[C@H]3O[C@@H](n4ccc5c(N)ncnc54)[C@](C)(O)[C@@H]3O)O2)c1 (some centres unmarked) (as salt: trifluoroacetic acid salt) ; melting point = 80 to 85 °C
